# Tested on: Klebsiella pneumoniae SHV-12
# MEASUREMENT_DESCRIPTION: MIC, CLSI broth microdilution
# Type: cell-based
# MEASUREMENT_CONTEXT: SHV12, SHV-12, read-out: MIC
# Description: Gram-negative and Gram-positive bacterial strains used during the in vitro minimum inhibitory concentration (MIC) determination were obtained either from the American Type Culture Collection (ATCC) or from clinical specimens. […] Isolates were sub-cultured onto appropriate media and stocked in skim milk at −80° C. […] MICs for comparator agents were determined using custom-designed, in-house prepared 96-well broth microdilution panels.
MEASURED_PROPERTY: MIC

COMPOUND	MEASURED_PROPERTY	RECORDED_VALUE
CC(C)(O/N=C(\C(=O)N[C@H]1CON(C2(C(=O)O)C[C@@H](N3C(=O)c4cc(O)c(O)cc4C3=O)C(=O)O2)C1=O)c1csc(N)n1)C(=O)O (stereo partly drawn)	MIC	≤ 0.015 µg/mL

Provide the documented MIC with Klebsiella pneumoniae SHV-12 as the system for Nc1nc(/C(=N/OC2(C(=O)O)CCC(F)(F)CC2)C(=O)N[C@H]2CON(C3(C(=O)O)C[C@H](N4C(=O)c5cc(O)c(O)cc5C4=O)C(=O)O3)C2=O)cs1 (stereo partly drawn)
≤ 0.015 µg/mL

And the next one, Nc1nc(/C(=N/OC(CO)(CCl)C(=O)O)C(=O)N[C@H]2CON(C3(C(=O)O)C[C@H](N4C(=O)c5cc(O)c(O)cc5C4=O)C(=O)O3)C2=O)cs1 (stereo partly drawn) ?
≤ 0.015 µg/mL

###

# Test system: Escherichia coli Elevated AmpC
# MEASUREMENT_DESCRIPTION: MIC against Elevated AmpC producing strains, compound alone
# Format: cell-based
# MEASUREMENT_CONTEXT: strain of row r11
MEASURED_PROPERTY: MIC (µg/mL)
Report as a plain number; the unit µg/mL is understood.

Check out these entries, answers already filled in.
COMPOUND	MEASUREMENT_TARGET	MIC, µg/mL
Nc1nc(/C(=N/OC2(C(=O)O)CCOCC2)C(=O)N[C@H]2CON(C3(C(=O)O)C[C@H](N4C(=O)c5cc(O)c(O)nc5C4=O)C(=O)O3)C2=O)cs1 (stereo partly shown) [Cmpd 26]	Escherichia coli Elevated AmpC	0.5
Nc1nc(/C(=N/OC2(C(=O)O)CCC(F)(F)CC2)C(=O)N[C@H]2CON(C3(C(=O)O)C[C@H](N4C(=O)c5cc(O)c(O)cc5C4=O)C(=O)O3)C2=O)cs1 (stereo partly shown) [Cmpd 10]	Escherichia coli Elevated AmpC	0.12
Nc1nc(/C(=N/OC2(C(=O)O)CC2)C(=O)N[C@H]2CON(C3(C(=O)O)C[C@H](N4Cc5cc(O)c(O)cc5C4=O)C(=O)O3)C2=O)cs1 (stereo partly shown) [Cmpd 28]	Escherichia coli Elevated AmpC	0.5
Nc1nc(/C(=N/OC2(C(=O)O)CC2)C(=O)N[C@H]2CON(C3(C(=O)O)C[C@H](N4C(=O)c5cc(O)c(O)cc5C4=O)C(=O)O3)C2=O)cs1 (stereo partly shown) [Cmpd 1]	Escherichia coli Elevated AmpC	0.25
CC(C)(O/N=C(\C(=O)N[C@@H]1C(=O)N2C(C(=O)[O-])=C(C[n+]3ccccc3)CS[C@H]12)c1csc(N)n1)C(=O)O [Ceftazidime, ceftazidime, reference compound]	Escherichia coli Elevated AmpC	8
Nc1nc(/C(=N/OC2(C(=O)O)CCOCC2)C(=O)N[C@H]2CON(C3(C(=O)O)C[C@H](N4C(=O)c5cc(O)c(O)cc5C4=O)C(=O)O3)C2=O)cs1 (stereo partly shown) [Cmpd 8]	Escherichia coli Elevated AmpC	0.12

Next up:
Can you look up the measured MIC of Nc1nc(/C(=N/OC2(C(=O)O)CC2)C(=O)N[C@H]2CON(C3(C(=O)O)C[C@H](N4C(=O)c5cc(O)c(O)cc5C4=O)C(=O)O3)C2=O)ns1 (stereo partly shown) [Cmpd 18] for me?
0.25

###

# Tested on: Escherichia coli CMY-DHA
# MEASUREMENT_DESCRIPTION: Synergistic activity: MIC in the presence of Avibactam
# Assay type: cell-based
# MEASUREMENT_CONTEXT: strain of row r30, in the presence of Avibactam @ 4 μg/mL
MEASURED_PROPERTY: MIC

COMPOUND	RECORDED_VALUE
Nc1nc(/C(=N/OC2(C(=O)O)CCC(F)(F)CC2)C(=O)N[C@H]2CON(C3(C(=O)O)C[C@H](N4C(=O)c5cc(O)c(O)cc5C4=O)C(=O)O3)C2=O)cs1 (stereo partly shown) [Cmpd 10]	<=0.008 μg/mL
Nc1nc(/C(=N/OC2(C(=O)O)CC2)C(=O)N[C@H]2CON(C3(C(=O)O)C[C@H](N4Cc5cc(O)c(O)cc5C4=O)C(=O)O3)C2=O)cs1 (stereo partly shown) [Cmpd 28]	<=0.008 μg/mL
Nc1nc(/C(=N/OC2(C(=O)O)CCOCC2)C(=O)N[C@H]2CON(C3(C(=O)O)C[C@H](N4C(=O)c5cc(O)c(O)nc5C4=O)C(=O)O3)C2=O)cs1 (stereo partly shown) [Cmpd 26]	<=0.008 μg/mL

###

Measured MIC by item
# System: Escherichia coli Elevated AmpC
# MEASUREMENT_DESCRIPTION: MIC against Elevated AmpC producing strains, compound alone
# Assay type: cell-based
# MEASUREMENT_CONTEXT: strain of row r13

These recorded examples may help you get a feel for the data.
COMPOUND	MIC
Nc1nc(/C(=N/OC2(C(=O)O)CC2)C(=O)N[C@H]2CON(C3(C(=O)O)C[C@H](N4C(=O)c5cc(O)c(O)cc5C4=O)C(=O)O3)C2=O)ns1 (stereo partly shown) [Cmpd 18]	0.06 µg/mL
Nc1nc(/C(=N/OC2(C(=O)O)CC2)C(=O)N[C@H]2CON(C3(C(=O)O)C[C@H](N4C(=O)c5cc(O)c(O)cc5C4=O)C(=O)O3)C2=O)cs1 (stereo partly shown) [Cmpd 1]	0.06 µg/mL
Nc1nc(/C(=N/OC2(C(=O)O)CCOCC2)C(=O)N[C@H]2CON(C3(C(=O)O)C[C@H](N4C(=O)c5cc(O)c(O)cc5C4=O)C(=O)O3)C2=O)cs1 (stereo partly shown) [Cmpd 8]	0.03 µg/mL
CC(C)(O/N=C(\C(=O)N[C@@H]1C(=O)N2C(C(=O)[O-])=C(C[n+]3ccccc3)CS[C@H]12)c1csc(N)n1)C(=O)O [Ceftazidime, ceftazidime, reference compound]	4 µg/mL
Nc1nc(/C(=N/OC2(C(=O)O)CC2)C(=O)N[C@H]2CON(C3(C(=O)O)C[C@H](N4Cc5cc(O)c(O)cc5C4=O)C(=O)O3)C2=O)cs1 (stereo partly shown) [Cmpd 28]	0.25 µg/mL

Recorded MIC of Nc1nc(/C(=N/OC2(C(=O)O)CCOCC2)C(=O)N[C@H]2CON(C3(C(=O)O)C[C@H](N4C(=O)c5cc(O)c(O)nc5C4=O)C(=O)O3)C2=O)cs1 (stereo partly shown) [Cmpd 26] , please.
0.06 µg/mL

Again, but for Nc1nc(/C(=N/OC2(C(=O)O)CCC(F)(F)CC2)C(=O)N[C@H]2CON(C3(C(=O)O)C[C@H](N4C(=O)c5cc(O)c(O)cc5C4=O)C(=O)O3)C2=O)cs1 (stereo partly shown) [Cmpd 10]
0.03 µg/mL

###

Test system Acinetobacter baumannii ATCC 19606, MIC listed for each of the compounds.
# value in µg/mL; strip the unit string

Worked examples, 4 compounds total:
COMPOUND	MIC / µg/mL
Nc1nc(/C(=N/OC2(C(=O)O)CC2)C(=O)N[C@H]2CON(C3(C(=O)O)C[C@H](N4Cc5cc(O)c(O)cc5C4=O)C(=O)O3)C2=O)cs1 (some centres unmarked) [Cmpd 28]	0.12
Nc1nc(/C(=N/OC2(C(=O)O)CC2)C(=O)N[C@H]2CON(C3(C(=O)O)C[C@H](N4C(=O)c5cc(O)c(O)cc5C4=O)C(=O)O3)C2=O)cs1 (some centres unmarked) [Cmpd 1]	0.03
Nc1nc(/C(=N/OC2(C(=O)O)CC3CCC(C2)O3)C(=O)N[C@H]2CON(C3(C(=O)O)C[C@H](N4Cc5cc(O)c(O)cc5C4=O)C(=O)O3)C2=O)cs1 (some centres unmarked) [Cmpd 30]	0.5
Nc1nc(/C(=N/OC2(C(=O)O)CC3CCC(C2)O3)C(=O)N[C@H]2CON(C3(C(=O)O)C[C@H](N4C(=O)c5cc(O)c(O)cc5C4=O)C(=O)O3)C2=O)cs1 (some centres unmarked) [Cmpd 13]	0.12

Quick check: MIC of Nc1nc(/C(=N/OC2(C(=O)O)CCC(F)(F)CC2)C(=O)N[C@H]2CON(C3(C(=O)O)C[C@H](N4C(=O)c5cc(O)c(O)cc5C4=O)C(=O)O3)C2=O)cs1 (some centres unmarked) [Cmpd 10] ?
0.12
